Quick note: these are MIC numbers for system: Staphylococcus epidermidis KCTC 1917
observable: MIC

>>> recorded_result("CC[C@H](C)[C@@H]1NC(=O)[C@H](CCCCN)NC(=O)[C@@H](NC(=O)[C@H](CC(C)C)NC(=O)[C@@H](N)CCCCN)CSSC[C@@H](C(=O)N[C@@H](CCCCN)C(=O)O)NC(=O)[C@H](C(C)C)NC(=O)[C@H](CCCCN)NC(=O)[C@H]([C@@H](C)CC)NC(=O)[C@H](C(C)C)NC(=O)[C@H](C(C)C)NC1=O")
"≥ 32 µM"
>>> recorded_result("CC[C@H](C)[C@H](NC(=O)[C@H](CCCCN)NC(=O)[C@H](Cc1c[nH]c2ccccc12)NC(=O)[C@@H](N)CCCN=C(N)N)C(=O)N[C@@H](Cc1ccccc1)C(=O)N[C@@H](CCCCN)C(=O)N[C@@H](CCCCN)C(=O)N[C@@H](C)C(=O)N[C@@H](C)C(=O)N[C@@H](CCCCN)C(=O)N[C@@H](CCCCN)C(=O)N[C@@H](C)C(N)=O")
"≥ 32 µM"
>>> recorded_result("CC[C@H](C)[C@H](N)C(=O)N[C@@H](CC(C)C)C(=O)NCC(=O)N[C@@H](CCCCN)C(=O)N[C@H](C(=O)N[C@@H](CC(C)C)C(=O)N[C@@H](CCC(=O)O)C(=O)NCC(=O)N[C@H](C(=O)N[C@@H](CCCCN)C(=O)N[C@@H](CO)C(=O)N[C@@H](CC(C)C)C(=O)N[C@@H](Cc1ccccc1)C(N)=O)[C@@H](C)CC)[C@@H](C)CC")
"≥ 32 µM"

====

# Test system: Enterococcus faecalis ATCC 29212
observable: MIC

>>> recorded_result("CC[C@H](C)[C@H](NC(=O)CNC(=O)[C@H](CO)NC(=O)[C@H](CC(C)C)NC(=O)[C@@H](NC(=O)[C@H](CCCN=C(N)N)NC(=O)CNC(=O)[C@@H](NC(=O)[C@H](CC(C)C)NC(=O)[C@@H]1CCCN1C(=O)[C@H](CC(C)C)NC(=O)[C@@H](N)CCCCN)[C@@H](C)CC)C(C)C)C(=O)N[C@@H](CC(C)C)C(N)=O")
"> 168 µM"
>>> recorded_result("CC[C@H](C)[C@H](NC(=O)[C@@H]1CCCN1C(=O)[C@H](CC(C)C)NC(=O)[C@@H](N)Cc1ccccc1)C(=O)N[C@H](C(=O)N[C@H](C(=O)N[C@@H](CC(N)=O)C(=O)N[C@@H](CC(C)C)C(=O)N[C@@H](CC(C)C)C(=O)N[C@@H](CO)C(=O)NCC(=O)N[C@@H](CC(C)C)C(=O)N[C@@H](CC(C)C)C(=O)O)[C@@H](C)O)C(C)C")
"> 116 µM"
>>> recorded_result("CC(C)[C@H](NC(=O)CNC(=O)[C@H](CCC(N)=O)NC(=O)[C@@H](NC(=O)[C@@H](NC(=O)[C@@H]1CCCN1C(=O)[C@H](CCCN=C(N)N)NC(=O)[C@@H](NC(=O)[C@@H](NC(=O)[C@@H](N)CCCN=C(N)N)C(C)C)C(C)C)C(C)C)C(C)C)C(=O)N[C@@H](CCCCN)C(=O)N[C@@H](CCC(N)=O)C(=O)N[C@@H](CCCCN)C(=O)N[C@H](C(=O)N[C@@H](CCCN=C(N)N)C(=O)O)C(C)C")
"> 36.6 µM"
>>> recorded_result("C[C@H](NC(=O)[C@H](C)NC(=O)[C@H](CCCCN)NC(=O)[C@H](CCCCN)NC(=O)[C@@H](N)CCCCN)C(=O)N[C@@H](C)C(=O)N[C@@H](Cc1ccccc1)C(=O)N[C@@H](C)C(=O)N[C@@H](C)C(=O)N[C@@H](Cc1c[nH]c2ccccc12)C(=O)N[C@@H](C)C(=O)N[C@@H](C)C(=O)N[C@@H](Cc1ccccc1)C(=O)N[C@@H](C)C(=O)N[C@@H](CCCCN)C(=O)N[C@@H](CCCCN)C(=O)N[C@@H](CCCCN)C(N)=O")
"> 32 µM"
